# credit: patent US8426449B2

- Target System: human DP2 receptor (Homo sapiens, UniProt Q9Y5Y4)
- Sequence (Q9Y5Y4 1-395): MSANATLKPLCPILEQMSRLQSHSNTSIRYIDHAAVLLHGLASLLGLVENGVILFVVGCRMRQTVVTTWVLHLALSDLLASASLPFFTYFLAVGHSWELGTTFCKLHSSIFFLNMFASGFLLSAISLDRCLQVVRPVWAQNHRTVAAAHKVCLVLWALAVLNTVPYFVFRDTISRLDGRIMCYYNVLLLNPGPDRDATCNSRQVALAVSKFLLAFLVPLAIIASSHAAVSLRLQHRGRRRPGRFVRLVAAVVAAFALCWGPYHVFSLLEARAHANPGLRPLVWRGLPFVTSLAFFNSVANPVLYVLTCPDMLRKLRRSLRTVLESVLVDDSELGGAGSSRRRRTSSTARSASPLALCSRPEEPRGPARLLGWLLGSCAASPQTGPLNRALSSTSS
- Protocol Text: DP2/CRTH2 radioligand binding assay using [3H]PGD2
- Condition: hDP2 (CRTH2) binding assay, membranes of HEK293 cells expressing recombinant human DP2
Collected IC50 values appear next to each entry.

Known IC50 results, listed for orientation:
>>> df
                                   molecule  measured_metric  reported
0  COC(=O)N(Cc1cc(N(C)S(C)(=O)=O)ccc1Oc1cccc(CC(=O)O)c1)[C@@H](C)Cc1ccccc1             IC50  > 300 nM
1  CC(=O)N(CCc1ccccc1)Cc1cc(Br)ccc1Oc1cccc(CC(=O)O)c1             IC50  < 300 nM
2  CCN(Cc1cc(C(F)(F)F)ccc1Oc1cccc(CC(=O)O)c1)S(=O)(=O)c1ccc(C)cc1             IC50  < 300 nM

GET /values?readout=IC50&item= `CCN(Cc1cc(NC(=O)c2ccc(Cl)cc2)ccc1Oc1cc(CC(=O)O)ccc1OC)C(=O)C1CC1`
< 300 nM

And then `C[C@H](NCc1cc(C(F)(F)F)ccc1Oc1cccc(CC(=O)O)c1)[C@H](O)c1ccccc1` , what is it?
> 1000 nM

And then `COC(=O)N(Cc1cc(NC(C)=O)ccc1Oc1cccc(CC(=O)O)c1)[C@@H](C)Cc1ccccc1` , what is it?
< 300 nM

* * *

- Target System: human DP2 receptor (Homo sapiens)
- Protocol Text: DP2/CRTH2 radioligand binding assay using [3H]PGD2
- Condition: hDP2 (CRTH2) binding assay, membranes of HEK293 cells expressing recombinant human DP2
pIC50: −log10 of the molar value.
Measured Metric: pIC50

Known pIC50 results, listed for orientation:
                                   compound  measured_metric  reported
0  COC(=O)N(Cc1cc(N(C)C(C)=O)ccc1Oc1cccc(C(C)C(=O)O)c1)[C@@H](C)Cc1ccccc1 (stereo partly shown)            pIC50    < 6.52
1  CN(Cc1cc(C(F)(F)F)ccc1Oc1cccc(CC(=O)O)c1)C(=O)Cc1ccccc1            pIC50    > 6.52
2  COC(=O)N(CCc1ccccc1)Cc1cc(Br)ccc1Oc1cccc(CC(=O)O)c1            pIC50    > 6.52
3  CC(=O)N(Cc1cc(C(F)(F)F)ccc1Oc1cccc(CC(=O)O)c1)C1CCc2ccccc21 (stereo in doubt) [Compound 1-14]            pIC50    > 6.52
4  COc1ccc(CC(=O)O)cc1Oc1ccc(C(F)(F)F)cc1CN(Cc1ccccc1)C(C)=O            pIC50    > 6.52

GET /values?readout=pIC50&item= `CCN(Cc1cc(C(F)(F)F)ccc1Oc1cc(CC(=O)O)ccc1OC)C(=O)OC`
< 6.52

And then `COc1ccc(CC(=O)O)cc1Oc1ccc(Br)cc1CN[C@H]1c2ccccc2C[C@H]1O` , what is it?
< 6.00
